Tested on: Plasmodium berghei
Method: Antisporogonic activity against GFP expressing Plasmodium berghei ANKA infected in BALB/c mouse assessed as inhibition of appearance of oocysts in Anopheles gambiae level at 10 umol/kg, ip by microscopic analysis (reference value: 83.6%)
Type: functional
Readout: inhibition in vivo at 10 µmol/kg (%)
The response must be a number in % with no trailing unit.

Known value: Plasmodium berghei inhibition in vivo at 10 µmol/kg of the compound COc1cc(NC(C)CCCNC(=O)CC2CCC3(CC2)OOC2(OO3)C3CC4CC(C3)CC2C4)c2ncccc2c1 (stereo not given) equals 66.7

The recorded inhibition in vivo at 10 µmol/kg with Plasmodium berghei for COc1cc(NC(C)CCCNC(=O)C2CCC3(CC2)OOC2(OO3)C3CC4CC(C3)CC2C4)c2ncccc2c1 (stereo not given) was 68.6

Param item: COc1cc(NC(C)CCCNCC2CCC3(CC2)OOC2(OO3)C3CC4CC(C3)CC2C4)c2ncccc2c1 (stereo not given) ; param system: Plasmodium berghei; output inhibition in vivo at 10 µmol/kg: 42.9

# value of inhibition in vivo at 10 µmol/kg, Plasmodium berghei, item COc1cc(NC(C)CCCNC2CCC3(CC2)OOC2(OO3)C3CC4CC(C3)CC2C4)c2ncccc2c1 (stereo not given) = 36.4

Moving on to the next compound.
Observed inhibition in vivo at 10 µmol/kg on Plasmodium berghei, entry COc1cc(NC(C)CCCN)c2ncccc2c1 (stereo not given) , equals 35.5

----------
Recorded measurements of microsomal CLint at 0.1 µM, one per entry
Method: Intrinsic clearance in rat liver microsomes at 0.1 uM
Type: ADME
Protocol Conditions: read-out: CLH

The value of microsomal CLint at 0.1 µM measured for the molecule COc1cc(NC(C)CCCNCC2CCC3(CC2)OOC2(OO3)C3CC4CC(C3)CC2C4)c2ncccc2c1 (configuration not stated) turned out to be 51.2 µL/min/mg

Now consider a different molecule.
The molecule identified as COc1cc(NC(C)CCCNC(=O)C2CCC3(CC2)OOC2(OO3)C3CC4CC(C3)CC2C4)c2ncccc2c1 (configuration not stated) registered its microsomal CLint at 0.1 µM at 133 µL/min/mg
